ASSAYED_SYSTEM: UniProt:P29275
ASSAY_PROCEDURE: Adenosine receptor activity assay (Table 1), A2B activity
Type: biochemical
ASSAY_SETUP: read-out: Ave A2B cAMP IC50
MEASUREMENT_KIND: IC50

Input line: Recorded IC50 of C[C@H](Nc1nc(C(=O)NC(CO)c2cccnc2)c2sccc2n1)c1ccccn1 (some centres unmarked) , please.
Output line: > 500 nM

Input line: Recorded IC50 of C[C@H](Nc1nc(C(=O)N2CCCC2)c2sc(N)cc2n1)c1cncc(F)c1 , please.
Output line: < 10 nM

Input line: Recorded IC50 of C[C@H](Nc1nc(C(=O)N2CC(N)C2)c2sccc2n1)c1cncc(F)c1 , please.
Output line: 10 to 50 nM

Input line: Recorded IC50 of C[C@H](Nc1nc(C(=O)NCCO)c2sc(N)cc2n1)c1ccccn1 , please.
Output line: 10 to 50 nM

Input line: Recorded IC50 of Cc1cc2nc(N[C@@H](C)c3cccnc3)nc(C(=O)N3CC(CO)C3)c2s1 , please.
Output line: 10 to 50 nM

Input line: Recorded IC50 of O=C(NCCn1ccnc1)c1nc(NCc2cncc(F)c2)nc2ccsc12 , please.
Output line: > 500 nM

Input line: Recorded IC50 of C[C@H](Nc1nc(C(=O)N2CC[C@H](O)C2)c2sc(C(F)(F)F)cc2n1)c1cccnc1 , please.
Output line: 10 to 50 nM

Input line: Recorded IC50 of C[C@H](Nc1nc(C(=O)N2CC[C@@H](NC(=O)OC(C)(C)C)C2)c2sccc2n1)c1ccccn1 , please.
Output line: 10 to 50 nM

Input line: Recorded IC50 of CC(C)OC(=O)NC1CN(C(=O)c2nc(N[C@@H](C)c3cncc(F)c3)nc3ccsc23)C1 , please.
Output line: 10 to 50 nM

Input line: Recorded IC50 of O=C(c1nc(NCc2cncc(Cl)c2)nc2ccsc12)N1CCCC1 , please.
Output line: 10 to 50 nM

Input line: Recorded IC50 of CO[C@H]1CCN(C(=O)c2nc(N[C@@H](C)c3cccnc3)nc3ccsc23)C1 , please.
Output line: 50 to 100 nM

Input line: Recorded IC50 of C[C@H](Nc1nc(C(=O)N2CCOCC2)c2sccc2n1)c1cccnc1 , please.
Output line: > 500 nM

Input line: Recorded IC50 of CC(C)(C)OC(=O)N[C@@H]1CCN(C(=O)c2nc(NCc3cncc(F)c3)nc3ccsc23)C1 , please.
Output line: < 10 nM

Input line: Recorded IC50 of C[C@H](Nc1nc(C(=O)NCCc2ccc(C(=O)O)cc2)c2sccc2n1)c1cncc(F)c1 , please.
Output line: 100 to 500 nM

Input line: Recorded IC50 of CCO[C@@H]1CCN(C(=O)c2nc(N[C@@H](C)c3ccccn3)nc3ccsc23)C1 , please.
Output line: 10 to 50 nM

Input line: Recorded IC50 of C[C@H](Nc1nc(C(=O)N2CC(F)(F)C2)c2sccc2n1)c1cccnc1 , please.
Output line: 10 to 50 nM

Input line: Recorded IC50 of C[C@H](Nc1nc(C(=O)NCCC2CNC2)c2sccc2n1)c1ccccn1 , please.
Output line: 100 to 500 nM

###

Answer each item with its documented pIC50.
ASSAYED_SYSTEM: adenosine A2B receptor (Homo sapiens (Human))
ASSAY_PROCEDURE: Adenosine receptor activity assay (Table 1), A2B activity
Assay type: biochemical
ASSAY_SETUP: read-out: Ave A2B cAMP IC50
pIC50: −log10 of the molar value.

Input line: Recorded pIC50 of CC(C)(C)OC(=O)N[C@H]1CCN(C(=O)c2nc(NCc3cncc(F)c3)nc3ccsc23)C1 , please.
Output line: 7.00 to 7.30

Input line: Recorded pIC50 of C[C@H](Nc1nc(C(=O)NCCc2cccc(O)c2)c2sccc2n1)c1cncc(F)c1 , please.
Output line: > 8.00

Input line: Recorded pIC50 of C[C@H](Nc1nc(C(=O)N2CCC2)c2sccc2n1)c1cncc(Cl)c1 , please.
Output line: > 8.00

Input line: Recorded pIC50 of C[C@H](Nc1nc(C(=O)N2CCN(C(=O)OC(C)(C)C)C2)c2sccc2n1)c1cncc(F)c1 , please.
Output line: 6.30 to 7.00

Input line: Recorded pIC50 of N#Cc1cncc(CNc2nc(C(=O)N3CCCC3)c3sccc3n2)c1 , please.
Output line: 7.30 to 8.00

Input line: Recorded pIC50 of CC(C)(C)C(=O)N[C@H]1CCN(C(=O)c2nc(NCc3cncc(F)c3)nc3ccsc23)C1 , please.
Output line: 7.30 to 8.00

Input line: Recorded pIC50 of C[C@H](Nc1nc(C(=O)NCCO)c2sccc2n1)c1ccccn1 , please.
Output line: 7.30 to 8.00

Input line: Recorded pIC50 of Cc1cc2nc(N[C@@H](C)c3ccccn3)nc(C(=O)N3CCC3)c2s1 , please.
Output line: > 8.00

###

ASSAYED_SYSTEM: adenosine A2B receptor (Homo sapiens (Human), UniProt P29275)
Sequence (P29275 whole entry): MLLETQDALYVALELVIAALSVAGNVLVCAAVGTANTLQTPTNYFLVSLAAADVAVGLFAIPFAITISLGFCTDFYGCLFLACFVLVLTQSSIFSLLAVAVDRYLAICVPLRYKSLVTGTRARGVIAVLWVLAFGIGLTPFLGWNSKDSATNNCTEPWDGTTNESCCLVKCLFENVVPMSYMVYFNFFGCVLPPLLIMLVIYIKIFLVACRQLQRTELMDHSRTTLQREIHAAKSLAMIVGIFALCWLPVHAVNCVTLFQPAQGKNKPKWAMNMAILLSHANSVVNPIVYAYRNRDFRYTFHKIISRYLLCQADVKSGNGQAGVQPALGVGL
ASSAY_PROCEDURE: Adenosine receptor activity assay (Table 1), A2B activity
Type: biochemical
ASSAY_SETUP: read-out: Ave A2B cAMP IC50
Answer each item with its documented IC50.

Input line: Recorded IC50 of C[C@H](Nc1nc(C(=O)NCC(C)(C)O)c2sccc2n1)c1ccccn1 , please.
Output line: 100 to 500 nM

Input line: Recorded IC50 of CNc1cc2nc(N[C@@H](C)c3cccnc3)nc(C(=O)N3CC[C@@H](O)C3)c2s1 , please.
Output line: 50 to 100 nM

Input line: Recorded IC50 of CCOc1ccc(CNC(=O)c2nc(N[C@@H](C)c3ccccn3)nc3ccsc23)cn1 , please.
Output line: 50 to 100 nM

Input line: Recorded IC50 of Cc1cc2nc(N[C@@H](C)c3ccccn3)nc(C(=O)NCc3ccccn3)c2s1 , please.
Output line: 10 to 50 nM

###

ASSAYED_SYSTEM: adenosine A3 receptor (Homo sapiens (Human), UniProt P0DMS8)
Sequence (P0DMS8 whole entry): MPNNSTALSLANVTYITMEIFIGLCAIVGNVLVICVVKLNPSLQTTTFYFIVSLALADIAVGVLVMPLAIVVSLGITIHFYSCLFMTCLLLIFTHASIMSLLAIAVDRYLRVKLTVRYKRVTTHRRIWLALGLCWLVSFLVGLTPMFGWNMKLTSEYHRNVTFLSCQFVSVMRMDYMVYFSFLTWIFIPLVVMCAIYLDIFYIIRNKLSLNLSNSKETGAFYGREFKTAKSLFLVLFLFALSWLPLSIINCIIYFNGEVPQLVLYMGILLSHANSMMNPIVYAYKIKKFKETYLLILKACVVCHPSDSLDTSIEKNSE
ASSAY_PROCEDURE: Adenosine receptor activity assay (Table 1), A3 cAMP
Assay type: biochemical
MEASUREMENT_KIND: IC50

Input line: Item Cc1cc2nc(N[C@@H](C)c3cncc(F)c3)nc(C(=O)NCCC3CCNCC3)c2s1 [Example Z496] with adenosine A3 receptor (Homo sapiens (Human), UniProt P0DMS8) - IC50?
Output line: > 500 nM

Input line: Item Cc1cc2nc(N[C@@H](C)c3cncc(F)c3)nc(C(=O)N3CC(CNC(=O)CC(C)(C)C)C3)c2s1 [Example Z586] with adenosine A3 receptor (Homo sapiens (Human), UniProt P0DMS8) - IC50?
Output line: > 500 nM

Input line: Item Cc1cc2nc(N[C@@H](C)c3ccccn3)nc(C(=O)N3CC(CNC(=O)OC(C)(C)C)C3)c2s1 [Example Z476] with adenosine A3 receptor (Homo sapiens (Human), UniProt P0DMS8) - IC50?
Output line: > 500 nM

Input line: Item CCNC(=O)CC1CN(C(=O)c2nc(N[C@@H](C)c3cncc(F)c3)nc3cc(C)sc23)C1 [Example Z495] with adenosine A3 receptor (Homo sapiens (Human), UniProt P0DMS8) - IC50?
Output line: 50 to 100 nM

Input line: Item COc1cccc(CNC(=O)c2nc(N[C@@H](C)c3ccccn3)nc3c(C)csc23)n1 [Example Z450] with adenosine A3 receptor (Homo sapiens (Human), UniProt P0DMS8) - IC50?
Output line: 50 to 100 nM

Input line: Item C[C@H](Nc1nc(C(=O)N2CCC(C(=O)NOC(C)(C)C)C2)c2sccc2n1)c1cncc(F)c1 (stereo partly shown) [Example Z549] with adenosine A3 receptor (Homo sapiens (Human), UniProt P0DMS8) - IC50?
Output line: > 500 nM

Input line: Item Cc1cc2nc(N[C@@H](C)c3cncc(F)c3)nc(C(=O)N3CC(NC(=O)[C@@H]4CCOC4)C3)c2s1 [Example Z598] with adenosine A3 receptor (Homo sapiens (Human), UniProt P0DMS8) - IC50?
Output line: 100 to 500 nM

###

ASSAYED_SYSTEM: adenosine A1 receptor (Homo sapiens (Human), UniProt P30542)
Sequence (P30542 whole entry): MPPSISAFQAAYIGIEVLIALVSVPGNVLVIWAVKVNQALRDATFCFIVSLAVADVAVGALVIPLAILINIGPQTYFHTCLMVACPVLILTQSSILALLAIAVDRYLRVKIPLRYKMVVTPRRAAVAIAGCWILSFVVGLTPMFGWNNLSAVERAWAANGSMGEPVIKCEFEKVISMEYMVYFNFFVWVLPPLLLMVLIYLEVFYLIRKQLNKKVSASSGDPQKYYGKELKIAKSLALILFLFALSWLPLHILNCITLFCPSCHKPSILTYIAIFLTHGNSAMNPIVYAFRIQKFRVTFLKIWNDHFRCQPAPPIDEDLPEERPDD
ASSAY_PROCEDURE: Adenosine receptor activity assay (Table 1), A1 cAMP
Type: cell-based
MEASUREMENT_KIND: IC50

Input line: Recorded IC50 of Cc1cc2nc(N[C@@H](C)c3cncc(F)c3)nc(C(=O)NC[C@H](C)O)c2s1 , please.
Output line: 50 to 100 nM

Input line: Recorded IC50 of COC1CN(C(=O)c2nc(N[C@@H](C)c3cccnc3)nc3cc(C)sc23)C1 , please.
Output line: > 500 nM

Input line: Recorded IC50 of Cc1cc2nc(N[C@@H](C)c3cccnc3)nc(C(=O)N3CC[C@H](O)C3)c2s1 , please.
Output line: > 500 nM

Input line: Recorded IC50 of C[C@H](Nc1nc(C(=O)N2CCCC2)c2sc(N)cc2n1)c1cncc(F)c1 , please.
Output line: > 500 nM

Input line: Recorded IC50 of Cc1cc2nc(N[C@@H](C)c3cccnc3)nc(C(=O)N3CCCC3)c2s1 , please.
Output line: > 500 nM

Input line: Recorded IC50 of CO[C@H]1CCN(C(=O)c2nc(N[C@@H](C)c3cncc(F)c3)nc3ccsc23)C1 , please.
Output line: > 500 nM

Input line: Recorded IC50 of Cc1cc2nc(N[C@@H](C)c3ccccn3)nc(C(=O)N3CC[C@H](O)C3)c2s1 , please.
Output line: > 500 nM

Input line: Recorded IC50 of Cc1cc2nc(N[C@@H](C)c3cccnc3)nc(C(=O)N3CC[C@H](CO)C3)c2s1 , please.
Output line: > 500 nM
